System: H358 cells
Assay: Detection of cell proliferation inhibition, H358 (Cell-titer Glo, 96 h)
Assay type: cell-based
Settings: read-out: IC50 (nM) H358
Answer each item with its documented IC50.

These recorded examples may help you get a feel for the data.
COMPOUND: C=CC(=O)N1CCN(c2nc(=O)n(-c3c(C)ccnc3C(C)C)c3c4c(c(C=C)cc23)-c2c(F)cccc2CO4)[C@@H](C)C1 [Example 14]
SYSTEM_UNDER_TEST: H358 cells
VALUE_OBSERVED: < 50 nM
--
COMPOUND: C=CC(=O)N1CCN(c2nc(=O)n(-c3c(C)ccnc3C(C)C)c3c4c(c(Cl)cc23)-c2c(F)cccc2CO4)[C@@H](C)C1 [Example 13]
SYSTEM_UNDER_TEST: H358 cells
VALUE_OBSERVED: < 50 nM

As a next step, examine the compound that follows.
# IC50 of C=CC(=O)N1CCN(c2nc(=O)n(-c3c(C)ccnc3C(C)C)c3c4c(c(C)cc23)-c2c(F)cccc2CO4)[C@@H](C)C1 [Example 15] = < 50 nM
